- System: GH3-TRE-Luc cell line
- conditionNotes: read-out: AC50 (uM) modified / 1000; Tox21_110001=Tox21_111099; viability, 1 nM T3 present, 24 h

smilesRecord | CC50 (µM)
Oc1c(Cl)cc(Cl)c(Cl)c1Cc1c(O)c(Cl)cc(Cl)c1Cl | 14.8

###

- assayComment: in vitro
- conditionNotes: rat, gh3-tre-luc cells, AC50 (uM) modified / 1000, Tox21_110001=Tox21_301964; viability, 1 nM T3 present, 24 h

smilesRecord | CC50 at 24 h
CON(C)C(=O)Nc1ccc(Br)cc1 | > 90 µM

###

- assayComment: in vitro
- conditionNotes: rat, gh3-tre-luc cells, AC50 (uM) modified / 1000, Tox21_110001=Tox21_202464; viability, 1 nM T3 present, 24 h

compound | CC50 at 24 h / µM
CC(=O)/C=C/c1ccc2c(c1)OCO2 [Piperonal acetone] | 57.5

###

- assayComment: in vitro
- conditionNotes: rat, gh3-tre-luc cells, AC50 (uM) modified / 1000, Tox21_110001=Tox21_200561; viability, 1 nM T3 present, 24 h

compound | CC50 at 24 h / µM
CC1CCC(C(C)C)C(OC(=O)c2ccccc2N)C1 (stereo not shown) [Menthyl anthranilate] | 27.5

###

Measured CC50 at 24 h, listed per entry for reference.
- assayComment: in vitro
- conditionNotes: rat, gh3-tre-luc cells, AC50 (uM) modified / 1000

compound | CC50 at 24 h
CNC(=O)[C@H]1O[C@@H](n2cnc3c(NCc4cc(Cl)ccc4OCc4cc(C)no4)ncnc32)[C@H](O)[C@@H]1N | > 90 µM
Oc1ccc(Cl)cc1Cl | > 90 µM
CCCC[N+]1(C)[C@@H]2CC(OC(=O)[C@H](CO)c3ccccc3)C[C@H]1[C@@H]1O[C@@H]12 (stereo partly shown) [Butylscopolammonium bromide] | > 50 µM
COC(=O)CC[C@H](N)C(=O)O [(5)-Methyl L-glutamate] | > 50 µM
NC(=O)C[C@@H](N)C(=O)O [D-Asparagine hydrate] | > 50 µM
CCO[Si](CCCN=C=O)(OCC)OCC | > 90 µM
CC(C)=CCCC(C)CC=O (stereo not shown) | > 90 µM
O=C1OC(=O)c2c(Cl)c(Cl)c(Cl)c(Cl)c21 [Tetrachlorophthalic anhydride] | > 90 µM
CNC(=O)c1ccccc1 [N-Methylbenzamide] | > 90 µM
COC(=O)[C@@H](N)CCCNC(=N)N[N+](=O)[O-] | > 50 µM
CCCCC/C=C\C=C\C(=O)OCC [Ethyl (2E,4Z)-deca-2,4-dienoate] | 29.3 µM
O=C1C=CC(=O)C=C1 | > 90 µM
CCC(COC(=O)CCS)(COC(=O)CCS)COC(=O)CCS | > 90 µM
CC(O)CCCCn1c(=O)c2c(ncn2C)n(C)c1=O (racemic) [(+/-)-Lisofylline] | > 50 µM
CC[C@H](NC(=O)c1cc(F)ccc1NS(=O)(=O)c1cccc2cccnc12)c1ccccc1 | > 90 µM
CCCC1CCCC(=O)O1 (stereo not shown) | > 90 µM
Cc1ncc(C[n+]2csc(CCO[P@](=O)(O)OP(=O)(O)O)c2C)c(N)n1 [Cocarboxylase chloride] | > 50 µM
O=C(N[C@H]1CN2CCC1CC2)c1ccc2c(c1)OCCO2 | > 90 µM
CCN(CC)CCC(=O)N1c2ccccc2Sc2ccc(C(F)(F)F)cc21 | 20.5 µM

###

- assayComment: in vitro
- conditionNotes: rat, gh3-tre-luc cells, AC50 (uM) modified / 1000, Tox21_110001=Tox21_201493; viability, 1 nM T3 present, 24 h

molecule | CC50 at 24 h
O=NN(O)c1ccccc1 [Cupferron] | > 90 µM

###

Measured GH3-TRE-Ag-Followup hitc, listed per entry for reference.
- Tested on: thyroid hormone receptor (endogenous TRα and TRβ)
- assayComment: GH3-TRE-Ag-Followup confirmation (TOX21_TR_LUC_GH3_Agonist_Followup, aeid 2226)
- Format: cell-based, rat
- conditionNotes: hit call from tcpl
Structures can show the parent of a compound that is named as a salt.
quantityMeasured: GH3-TRE-Ag-Followup hitc

compound | quantityMeasured | result
O=C(O)Cc1cc(I)c(Oc2ccc(O)c(I)c2)c(I)c1 [Tiratricol, reference compound] | GH3-TRE-Ag-Followup hitc | 1
Cl.NC(CO)(CO)CO [Tromethamine hydrochloride] | GH3-TRE-Ag-Followup hitc | 1
O=C(Cl)OCCOCCOC(=O)Cl [Diethlylene glycol bis chloroformate] | GH3-TRE-Ag-Followup hitc | 0
CSCC[C@H](NC(=O)[C@H](Cc1ccc(OS(=O)(=O)O)cc1)NC(=O)[C@@H](N)CC(=O)O)C(=O)NCC(=O)N[C@@H](Cc1c[nH]c2ccccc12)C(=O)N[C@@H](CCSC)C(=O)N[C@@H](CC(=O)O)C(=O)N[C@@H](Cc1ccccc1)C(N)=O [Sincalide, reference compound] | GH3-TRE-Ag-Followup hitc | 0
N[C@@H](Cc1cc(I)c(Oc2ccc(O)c(I)c2)c(I)c1)C(=O)[O-].[Na+] [3,3ʹ,5-Triiodo-L-thyronine sodium salt, reference compound] | GH3-TRE-Ag-Followup hitc | 1
CC1=C(/C=C/C(C)=C\C=C\C(C)=C\C(=O)O)C(C)(C)CCC1 [9-cis Retinoic acid, reference compound] | GH3-TRE-Ag-Followup hitc | 1
NCC(=O)CCC(=O)O [Aminolevulinic acid hydrochloride] | GH3-TRE-Ag-Followup hitc | 1

###

- assayComment: in vitro
- conditionNotes: rat, gh3-tre-luc cells, AC50 (uM) modified / 1000
Structures can show the parent of a compound that is named as a salt.

compound | CC50 at 24 h
CCCCCCC(CO)CCCC (stereo not shown) | > 90 µM
CC(Cc1ccc(C(C)(C)C)cc1)CN1C[C@@H](C)O[C@@H](C)C1 (stereo partly shown) | > 90 µM
CNN [Methylhydrazine sulfate] | > 90 µM
CCOC(=O)C1=C(COCCN)NC(C)=C(C(=O)OC)C1c1ccccc1Cl (stereo not shown) [Amlodipine besylate] | 19.7 µM
CC(C)(C)NCC(O)c1ccccc1Cl (stereo not shown) [Tulobuterol hydrochloride] | > 50 µM
COC(=O)C(C)Oc1ccc(Oc2ncc(C(F)(F)F)cc2Cl)cc1 (stereo not shown) | > 90 µM
CC(C)c1cccc(C(C)C)c1O | > 90 µM
c1ccc2nc(N3CCNCC3)ccc2c1 [Quipazine maleate] | 36.9 µM
O=C(O)c1cc(Cl)cc(Cl)c1O | > 90 µM
OC1CCCCC1 | > 100 µM

###

- Test system: GH3-TRE-Luc cell line
- conditionNotes: read-out: AC50 (uM) modified / 1000; Tox21_110001=Tox21_112646; viability, 1 nM T3 present, 24 h

smilesRecord | CC50 (µM)
COC(=O)[C@H]1[C@H]2C[C@@H]3c4[nH]c5ccccc5c4CCN3C[C@H]2C[C@@H](OC(=O)c2cc(OC)c(OC)c(OC)c2)[C@@H]1OC | 1.94

###

- assayComment: in vitro
- conditionNotes: rat, gh3-tre-luc cells, AC50 (uM) modified / 1000, Tox21_110001=Tox21_112368; viability, 1 nM T3 present, 24 h

smilesRecord | CC50 at 24 h
CCON=O | > 50 µM

###

- Tested on: GH3-TRE-Luc cell line
- conditionNotes: read-out: AC50 (uM) modified / 1000; Tox21_110001=Tox21_303237; viability, 1 nM T3 present, 24 h

compound | unitText | CC50
C(=NC1CCCCC1)=NC1CCCCC1 [Dicyclohexylcarbodiimide] | µM | 49.8

###

- assayComment: in vitro
- conditionNotes: rat, gh3-tre-luc cells, AC50 (uM) modified / 1000
Structures can show the parent of a compound that is named as a salt.

molecule | CC50 at 24 h
CC(C)CC(=O)CC(C)C | > 90 µM
CC(=O)OC(c1ccccc1)C(Cl)(Cl)Cl (stereo not shown) [2,2,2-Trichloro-1-phenylethyl acetate] | > 90 µM
O=C(CCCN1CCN(c2ccccn2)CC1)c1ccc(F)cc1 | > 50 µM
CCC(=O)/C=C/c1ccc(OC)cc1 | > 90 µM
Nc1ccc(C(=O)O)cc1 | > 90 µM
COC1=CC(=O)C[C@@H](C)[C@]12Oc1c(Cl)c(OC)cc(OC)c1C2=O | > 90 µM
CCOCCOCCOC(C)=O [2-(2-Ethoxyethoxy)ethyl acetate] | > 90 µM
CC(=O)OC(C)OC(=O)C(C)c1ccc(-c2ccccc2)c(F)c1 (stereo not shown) | > 50 µM
CO/N=C(/C(=O)OC)c1ccccc1COc1ccccc1C | > 90 µM
CCCCCCCCCCCCCC[N+](C)(C)C | 9.07 µM
c1ccccc1 | > 90 µM
CC(CNC1CCCCC1)OC(=O)c1ccccc1 (stereo not shown) [Hexylcaine hydrochloride] | > 20 µM
Cc1cccc[n+]1[O-] [2-Methylpyridine 1-oxide] | > 90 µM
CCN1CCCC(OC(=O)C(c2ccccc2)c2ccccc2)C1 (stereo not shown) [Piperidolate hydrochloride] | 11.6 µM
CC(C)(C)OC(=O)c1ccccc1C(=O)O [tert-Butyl hydrogen phthalate] | > 90 µM
CCCCCCCCCC(=O)O[C@H]1CC[C@H]2[C@@H]3CCC4=CC(=O)CC[C@@H]4[C@H]3CC[C@]12C [Nandrolone decanoate] | > 50 µM
CC(C)n1c(/C=C/[C@H](O)C[C@H](O)CC(=O)O)c(-c2ccc(F)cc2)c2ccccc21 (racemic) | > 90 µM
Cc1cccc(Oc2ccccc2)c1 | > 90 µM
C=C1CC[C@H](O)C/C1=C/C=C1\CCC[C@]2(C)[C@@H]([C@H](C)CC[C@@H](O)C(C)(C)O)CC[C@@H]12 [24R,25-Dihydroxyvitamin D3] | 23.4 µM

The measurements presented in this section are drawn from paper PMC6792352.
